Let's look at some binders and their measured Fold change to WT.
# TESTED ON: CD28 (human) (UniProt P10747)
# PROTOCOL SUMMARY: flow cytometry, Jurkat cells (CD28)
Reply with just the number (in fold).

(Q) Entry CD80 variant E35D/D46E/M47V/L97Q IgV-Fc (Fc fusion) VIHVTKEVKEVATLSCGHNVSVEELAQTRIYWQKDKKMVLTMMSGEVNIWPEYKNRTIFDITNNLSIVILALRPSDEGTYECVVLKYEKDAFKREHQAEVT has what Fold change to WT?
(A) 0.05

(Q) Entry CD80 variant H18Y/Y31H/E35D/M47V/A71G/L85Q IgV-Fc (Fc fusion) VIHVTKEVKEVATLSCGYNVSVEELAQTRIHWQKDKKMVLTMMSGDVNIWPEYKNRTIFDITNNLSIVILGLRPSDEGTYECVVQKYEKDAFKREHLAEVT has what Fold change to WT?
(A) 0.04

---
(Q) Entry CD80 variant E35D/M47I/E77A/L85Q/R94W IgV-Fc (Fc fusion) VIHVTKEVKEVATLSCGHNVSVEELAQTRIYWQKDKKMVLTMMSGDINIWPEYKNRTIFDITNNLSIVILALRPSDAGTYECVVQKYEKDAFKWEHLAEVT has what Fold change to WT?
(A) 0.04

(Q) Entry CD80 variant Y31S/E35D/M47L/T79L/E88G IgV-Fc (Fc fusion) VIHVTKEVKEVATLSCGHNVSVEELAQTRISWQKDKKMVLTMMSGDLNIWPEYKNRTIFDITNNLSIVILALRPSDEGLYECVVLKYGKDAFKREHLAEVT has what Fold change to WT?
(A) 0.04

(Q) Entry CD80 variant E7D/E35D/M47I/L97Q IgV-Fc (Fc fusion) VIHVTKDVKEVATLSCGHNVSVEELAQTRIYWQKDKKMVLTMMSGDINIWPEYKNRTIFDITNNLSIVILALRPSDEGTYECVVLKYEKDAFKREHQAEVT has what Fold change to WT?
(A) 0.04

(Q) Entry CD80 variant A26E/E35D/M43T/M47L/L85Q/R94Q IgV-Fc (Fc fusion) VIHVTKEVKEVATLSCGHNVSVEELEQTRIYWQKDKKMVLTMTSGDLNIWPEYKNRTIFDITNNLSIVILALRPSDEGTYECVVQKYEKDAFKQEHLAEVT has what Fold change to WT?
(A) 0.03

(Q) Entry CD80 variant A26E/Q33L/E35D/M47L/L85Q IgV-Fc (Fc fusion) VIHVTKEVKEVATLSCGHNVSVEELEQTRIYWLKDKKMVLTMMSGDLNIWPEYKNRTIFDITNNLSIVILALRPSDEGTYECVVQKYEKDAFKREHLAEVT has what Fold change to WT?
(A) 0.04

(Q) Entry CD80 variant H18Y/V20A/Q33L/E35D/M47V/Y53F IgV-Fc (Fc fusion) VIHVTKEVKEVATLSCGYNASVEELAQTRIYWLKDKKMVLTMMSGDVNIWPEFKNRTIFDITNNLSIVILALRPSDEGTYECVVLKYEKDAFKREHLAEVT has what Fold change to WT?
(A) 0.03

(Q) Entry CD80 variant H18Y/A26E/Q33L/E35D/M47L/L85Q IgV-Fc (Fc fusion) VIHVTKEVKEVATLSCGYNVSVEELEQTRIYWLKDKKMVLTMMSGDLNIWPEYKNRTIFDITNNLSIVILALRPSDEGTYECVVQKYEKDAFKREHLAEVT has what Fold change to WT?
(A) 0.04

(Q) Entry CD80 variant V22A/R29H/E35D/D46E/M47I IgV-Fc (Fc fusion) VIHVTKEVKEVATLSCGHNVSAEELAQTHIYWQKDKKMVLTMMSGEINIWPEYKNRTIFDITNNLSIVILALRPSDEGTYECVVLKYEKDAFKREHLAEVT has what Fold change to WT?
(A) 0.04

(Q) Entry CD80 variant Q33L/E35D/T41S/M47V IgV-Fc (Fc fusion) VIHVTKEVKEVATLSCGHNVSVEELAQTRIYWLKDKKMVLSMMSGDVNIWPEYKNRTIFDITNNLSIVILALRPSDEGTYECVVLKYEKDAFKREHLAEVT has what Fold change to WT?
(A) 0.04

(Q) Entry CD80 variant A26E/Q33R/E35D/M47L/L85Q IgV-Fc (Fc fusion) VIHVTKEVKEVATLSCGHNVSVEELEQTRIYWRKDKKMVLTMMSGDLNIWPEYKNRTIFDITNNLSIVILALRPSDEGTYECVVQKYEKDAFKREHLAEVT has what Fold change to WT?
(A) 0.03
